assay: logP determination by HPLC on reversed-phase column (EEC Directive 79/831 Annex V.A8); format: physicochemical; details: pH 2.3
endpointName: logP (pH 2)/m.p.
The response must contain the number and no unit.

Examples from the recorded data:
compound | logP (pH 2)/m.p.
NC(=O)c1cnn(C2CN(C(=O)Nc3ccc(S(=O)(=O)C(F)(F)F)cc3)N=C2c2ccc(Cl)cc2)c1 (stereo not shown) | 2.94
N#Cc1cnn(C2CN(C(=O)Nc3ccc(OC(F)(F)F)cc3)N=C2c2ccc(Br)cc2)c1 (stereo not shown) | 4.00
CN(C)C(=O)c1cnn(C2CN(C(=O)Nc3ccc(SC(F)(F)F)cc3)N=C2c2ccc(Cl)cc2)c1 (stereo not shown) | 3.27
CNC(=O)c1cnn(C2CN(C(=O)Nc3ccc(S(=O)(=O)C(F)(F)F)cc3)N=C2c2ccc(Cl)cc2)c1 (stereo not shown) | 3.00
N#Cc1cnn(C2CN(C(=O)Nc3ccc(SC(F)(F)F)cc3)N=C2c2ccc(Br)cc2)c1 (stereo not shown) | 4.35
N#Cc1cnn(C2CN(C(=O)Nc3ccc(C(F)(F)F)cc3)N=C2c2ccc(Br)cc2)c1 (stereo not shown) | 3.94

Okay, now this compound:
Problem: Output measured logP (pH 2)/m.p. for this item: CN(C)C(=O)c1cnn(C2CN(C(=O)Nc3ccc(OC(F)(F)F)cc3)N=C2c2ccc(Cl)cc2)c1 (stereo not shown)
Solution: 3.27
